Exercise: for every item that follows, state its recorded switch fluorescence ratio.
# Test system: ATP;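 also: ATP exposure 15 min at 22 °C before imaging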
# measurement.description: switch fluorescence ratio, 500 uM ATP over buffer (Cy3 cluster intensity, sum of 5 cycles each) (fold (ratio)); higher = stronger signal-on switching upon ATP binding; sequences stand for … in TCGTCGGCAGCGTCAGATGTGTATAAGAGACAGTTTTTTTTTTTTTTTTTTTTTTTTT…TC
# condition.notes: aptamer strand: ATP DNA aptamer (quencher-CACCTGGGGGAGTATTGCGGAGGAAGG + anchor), 100 nM annealed; ATP concentration: 500 uM
Answers are plain numbers.

Below, each entry is followed by its recorded switch fluorescence ratio result.
1. GAGTATTCGG
0.998
2. ATTGTGGGGC
1

Now for the sequence whose switch fluorescence ratio we want.
// returns reported switch fluorescence ratio for input AACTGAAGTG
0.984

====

Exercise: for every item that follows, state its recorded switch fluorescence ratio.
# Test system: ATP;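 also: ATP exposure 15 min at 22 °C before imaging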
# measurement.description: switch fluorescence ratio, 500 uM ATP over buffer (Cy3 cluster intensity, sum of 5 cycles each) (fold (ratio)); higher = stronger signal-on switching upon ATP binding; sequences stand for … in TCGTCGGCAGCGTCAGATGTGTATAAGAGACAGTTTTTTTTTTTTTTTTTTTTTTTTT…TC
# condition.notes: aptamer strand: ATP DNA aptamer (quencher-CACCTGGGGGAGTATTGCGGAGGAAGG + anchor), 100 nM annealed; ATP concentration: 500 uM
Numbers only.

Below, each entry is followed by its recorded switch fluorescence ratio result.
1. TAAAATGGTG
1.01
2. GCGAGAATAG
1
3. GATGTAGGTA
0.983

Give switch fluorescence ratio for all sequences that follow.
1. GTTTTTAGAT
2. TTTTATCTGA
3. ATTAGTCGCG

1: 0.971; 2: 1.02; 3: 1.01

Give switch fluorescence ratio for all sequences that follow.
1. GATTTGGAGG
2. CCTTTGGGTC
3. ATGTTTATAG
4. AGATTGGAGA
5. CGGGCGGCGG
6. TTTGTTGTTT

[0.974, 0.98, 0.98, 1, 0.992, 0.986]

Give switch fluorescence ratio for all sequences that follow.
1. GTTGGTATTT
2. TACGATGTGG
3. TTTGGTGACT
4. ATTTTGCTCG
5. TTTTCAGGCG
6. CGTTCTATGT
7. AGGGGGAACG

[0.971, 1.01, 1.02, 0.999, 1, 1.01, 1.01]

Give switch fluorescence ratio for all sequences that follow.
1. GGATGACCTA
2. GAGGTTTCAT
3. ATCTGGTCAT

[0.976, 0.997, 0.972]

====

Exercise: for every item that follows, state its recorded switch fluorescence ratio.
# Test system: ATP;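 also: ATP exposure 15 min at 22 °C before imaging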
# measurement.description: switch fluorescence ratio, 500 uM ATP over buffer (Cy3 cluster intensity, sum of 5 cycles each) (fold (ratio)); higher = stronger signal-on switching upon ATP binding; sequences stand for … in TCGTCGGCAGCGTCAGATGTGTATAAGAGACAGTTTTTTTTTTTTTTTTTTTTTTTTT…TC
# condition.notes: aptamer strand: ATP DNA aptamer (quencher-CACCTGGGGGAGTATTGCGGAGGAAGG + anchor), 100 nM annealed; ATP concentration: 500 uM
Answers are plain numbers.

1) CCAAGGGTTT
0.993

Give switch fluorescence ratio for all sequences that follow.
1. CTGGGGGGTA
2. ATATGATTAG
3. TACTTTGCG
4. ATAGAGGGAT

[0.997, 0.993, 1.01, 0.98]
